- condition: basic group
recorded metric: pKa
Please reply with the number alone, leaving off any unit.

1) Cc1cccc2cc3ccccc3nc12	4.5
2) Nc1nc2cc3ccccc3cc2[nH]1	7.01
3) C[NH+](C)CC(C)(C)CN	7.4
4) c1ccc2[nH]cnc2c1	5.51
5) Cc1cc2c(cc1N)Sc1cc([NH+](C)C)ccc1N2	4.81

Enquiry: Given the molecule "C=C(C(=O)O[C@H]1C[C@@H]2[C@@H]3O[C@@H]3[C@H](C1)N2C)c1ccccc1" , write its reported pKa.
Return: 7.72

Enquiry: Given the molecule "NCc1cc(N)cc(Cl)c1" , write its reported pKa.
Return: 9.54

Enquiry: Given the molecule "CN(C)c1ccc(C=O)cc1" , write its reported pKa.
Return: 1.6

Enquiry: Given the molecule CC[NH+](CC)CCCC(C)Nc1ccnc2cc(Br)ccc12 (stereo not given) , write its reported pKa.
Return: 8.1

Enquiry: Given the molecule O=C([O-])C1CCCCN1 (stereo not given) , write its reported pKa.
Return: 10.6

Enquiry: Given the molecule "C=CCN(CC=C)CCCNC(=O)/C=N/[O-]" , write its reported pKa.
Return: 9.34

Enquiry: Given the molecule "CCc1cc(-c2ccccc2)nnc1NCCN1CCOCC1" , write its reported pKa.
Return: 7.08

Enquiry: Given the molecule "C1N2CN3CN1CN(C2)C3" , write its reported pKa.
Return: 4.95

Enquiry: Given the molecule "NCCCc1ccccn1" , write its reported pKa.
Return: 10.1

Enquiry: Given the molecule "Cc1cc(C)c2ccc3c(C)cc(C)nc3c2n1" , write its reported pKa.
Return: 6.5

Enquiry: Given the molecule "Cn1c(-c2ccccn2)nc2ccccc21" , write its reported pKa.
Return: 4.47

Enquiry: Given the molecule "NC(N)=O" , write its reported pKa.
Return: 0.4

Enquiry: Given the molecule "Cc1cc2ncn([C@H]3OC[C@H](O)[C@H](O)[C@@H]3O)c2cc1C" , write its reported pKa.
Return: 4.7

Enquiry: Given the molecule "CC(C)(N)C(C)(C)[NH3+]" , write its reported pKa.
Return: 6.56

Enquiry: Given the molecule CC(CC[NH+](C)C)NN (stereo not given) , write its reported pKa.
Return: 5.9

Enquiry: Given the molecule "COc1c(N)cccc1C(=O)N[C@@H]1C[C@H]2CC[C@@H](C1)N2Cc1ccccc1" , write its reported pKa.
Return: 8.86

Enquiry: Given the molecule "CCOCCNc1cccc(OC)c1" , write its reported pKa.
Return: 3.67

Enquiry: Given the molecule "NCCc1ccc(Br)cc1" , write its reported pKa.
Return: 9.65

Enquiry: Given the molecule "Cc1cc(-c2ccccc2)nn2c(C[NH+]3CCOCC3)cnc12" , write its reported pKa.
Return: 2.9

Enquiry: Given the molecule "c1ccc(NC2=NCCCO2)cc1" , write its reported pKa.
Return: 9.33

Enquiry: Given the molecule "CCOc1ccc(N)cc1" , write its reported pKa.
Return: 5.25
